- System: Rat primary microglia
- assay-protocol: Microglial IL-1β release (LPS priming, BzATP)
- Type: cell-based
- measurement-conditions: LPS 3 EU/ml priming, BzATP 1 mM, read-out: IC50, inhibition of IL-1β release from primary microglia
measure-name: pIC50
Numbers only, as −log10 of the molar value.

# input molecule: NC(=O)C(c1ccccc1)(c1ccc(F)cc1)c1ccc(F)cc1 ; wanted: its pIC50 7.82

* * *

- experimental-system: KCa3.1 (Rattus norvegicus)
- Construct: K^+ currents were recorded from primary microglia; endogenous in cells
- assay-protocol: Whole cell patch clamp of K+ currents in rat primary microglia
- measurement-conditions: read-out: IC50, inhibition of microglial K+ current
measure-name: pIC50
One number for each entry, as −log10 of the molar value.

Any idea what pIC50 came out for NC(=O)C(c1ccccc1)(c1ccc(F)cc1)c1ccc(F)cc1 on KCa3.1 (Rattus norvegicus)? 8.00

* * *

- assay-protocol: Plasma, brain and spinal cord exposure in CCI rats
- Assay type: in vivo, rat
- measurement-conditions: male, Sprague-Dawley, rat, brain, po, 10 mg/kg, 10 mg/kg PO, UBBr = 0.008, read-out: Free Brain
measure-name: concentration at 4 h (nM)
Numbers only, in nM.

Entry NC(=O)C(c1ccccc1)(c1ccc(F)cc1)c1ccc(F)cc1 has what concentration at 4 h? 22

* * *

- assay-protocol: Plasma, brain and spinal cord exposure in CCI rats
- Assay type: in vivo, rat
- measurement-conditions: male, Sprague-Dawley, rat, plasma, po, 100 mg/kg, 100 mg/kg PO, UBP = 0.027, read-out: Free Plasma
measure-name: concentration at 4 h (nM)
Answers are plain numbers, in nM.

What value of concentration at 4 h has been reported for the following compound? NC(=O)C(c1ccccc1)(c1ccc(F)cc1)c1ccc(F)cc1 103

* * *

- assay-protocol: Plasma, brain and spinal cord exposure in CCI rats
- Assay type: in vivo, rat
- measurement-conditions: male, Sprague-Dawley, rat, plasma, po, 30 mg/kg, 30 mg/kg PO, mean ± SD, read-out: Plasma
measure-name: concentration at 4 h (nM)
Give bare numbers, in nM.

Report concentration at 4 h for NC(=O)C(c1ccccc1)(c1ccc(F)cc1)c1ccc(F)cc1 please. 2060

* * *

- assay-protocol: Plasma and brain free fraction by equilibrium dialysis
- Assay type: in vitro ADME, rat
- Design: dose or concentration left out as unconfirmed
- measurement-conditions: brain homogenate (4x w/v in homogenization buffer), rat brain homogenate, read-out: In vitro rat brain free fraction (UBBr)
measure-name: fraction unbound at 2.5 h
Answers are plain numbers.

Would you mind telling me what fraction unbound at 2.5 h value was observed for NC(=O)C(c1ccccc1)(c1ccc(F)cc1)c1ccc(F)cc1 [Senicapoc] ? 0.008

* * *

- assay-protocol: Plasma, brain and spinal cord exposure in CCI rats
- Type: in vivo, rat
- measurement-conditions: male, Sprague-Dawley, rat, spinal cord, 30 mg/kg PO, read-out: Free Spinal Cord/Free Plasma
measure-name: Kp at 4 h
One number for each entry.

State the recorded Kp at 4 h for this entry: NC(=O)C(c1ccccc1)(c1ccc(F)cc1)c1ccc(F)cc1 0.8

* * *

- assay-protocol: Plasma, brain and spinal cord exposure in CCI rats
- Format: in vivo, rat
- measurement-conditions: male, Sprague-Dawley, rat, plasma, po, 100 mg/kg, 100 mg/kg PO, mean ± SD, read-out: Plasma
measure-name: concentration at 4 h (µM)
Give bare numbers, in µM.

# query: concentration at 4 h of entry NC(=O)C(c1ccccc1)(c1ccc(F)cc1)c1ccc(F)cc1 [Senicapoc] 3.8

* * *

- assay-protocol: Plasma, brain and spinal cord exposure in CCI rats
- Type: in vivo, rat
- measurement-conditions: male, Sprague-Dawley, rat, brain, po, 100 mg/kg, 100 mg/kg PO, UBBr = 0.008, read-out: Free Brain
measure-name: concentration at 4 h (nM)
One number for each entry, in nM.

Give its concentration at 4 h value. Item: NC(=O)C(c1ccccc1)(c1ccc(F)cc1)c1ccc(F)cc1 [Senicapoc] 106

* * *

- assay-protocol: Plasma, brain and spinal cord exposure in CCI rats
- Assay type: in vivo, rat
- measurement-conditions: male, Sprague-Dawley, rat, brain, 10 mg/kg PO, read-out: Free Brain/Free Plasma
measure-name: Kp at 4 h

Looking for the measured Kp at 4 h of NC(=O)C(c1ccccc1)(c1ccc(F)cc1)c1ccc(F)cc1 , can you help? 1.1

* * *

- assay-protocol: Rat screening pharmacokinetics: plasma, brain, CSF exposure
- Type: in vivo
- measurement-conditions: male, Sprague-Dawley, rat, brain, po, 10 mg/kg, Screening PK, 10 mg/kg PO, 1 h, mean ± SD; read-out: Brain
measure-name: concentration at 1 h (µM)
One number for each entry, in µM.

Given NC(=O)C(c1ccccc1)(c1ccc(F)cc1)c1ccc(F)cc1 , state its recorded concentration at 1 h. 4.66

* * *

- assay-protocol: Plasma, brain and spinal cord exposure in CCI rats
- Assay type: in vivo, rat
- measurement-conditions: male, Sprague-Dawley, rat, brain, po, 100 mg/kg, 100 mg/kg PO, mean ± SD, read-out: Brain
measure-name: concentration at 4 h

May I ask what concentration at 4 h has been recorded for NC(=O)C(c1ccccc1)(c1ccc(F)cc1)c1ccc(F)cc1 ? 13.3 µM

* * *

- assay-protocol: Plasma, brain and spinal cord exposure in CCI rats
- Assay type: in vivo, rat
- measurement-conditions: male, Sprague-Dawley, rat, brain, 30 mg/kg PO, read-out: Free Brain/Free Plasma
measure-name: Kp at 4 h

Fill in the blank: the reported Kp at 4 h of NC(=O)C(c1ccccc1)(c1ccc(F)cc1)c1ccc(F)cc1 [Senicapoc] is ____. 0.9

* * *

- experimental-system: μ-opioid receptors (Homo sapiens)
- Construct: CEREP (contract screening)
- Sequence (P35372 whole entry): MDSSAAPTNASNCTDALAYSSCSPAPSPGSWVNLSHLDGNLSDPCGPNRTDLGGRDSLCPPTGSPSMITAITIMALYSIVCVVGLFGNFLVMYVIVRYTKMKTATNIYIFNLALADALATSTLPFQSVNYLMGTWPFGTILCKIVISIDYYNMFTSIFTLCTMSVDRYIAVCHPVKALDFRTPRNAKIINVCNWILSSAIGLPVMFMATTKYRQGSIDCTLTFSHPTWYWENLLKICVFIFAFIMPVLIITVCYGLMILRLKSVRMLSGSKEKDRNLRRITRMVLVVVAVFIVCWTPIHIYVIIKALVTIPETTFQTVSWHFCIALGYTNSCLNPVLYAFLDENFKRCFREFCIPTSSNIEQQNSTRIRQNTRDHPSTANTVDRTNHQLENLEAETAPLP
- assay-protocol: Off target screen (CEREP panel) and dose response
- measurement-conditions: full dose response curve; functional testing
measure-name: IC50 (µM)
Give bare numbers, in µM.

If you can, please state the reported IC50 value of NC(=O)C(c1ccccc1)(c1ccc(F)cc1)c1ccc(F)cc1 . 12

* * *

- assay-protocol: Plasma, brain and spinal cord exposure in CCI rats
- Type: in vivo, rat
- measurement-conditions: male, Sprague-Dawley, rat, brain, po, 30 mg/kg, 30 mg/kg PO, UBBr = 0.008, read-out: Free Brain
measure-name: concentration at 4 h

Need concentration at 4 h of NC(=O)C(c1ccccc1)(c1ccc(F)cc1)c1ccc(F)cc1 [Senicapoc] , thanks. 51 nM

* * *

- assay-protocol: Rat screening pharmacokinetics: plasma, brain, CSF exposure
- Assay type: in vivo
- measurement-conditions: male, Sprague-Dawley, rat, plasma, po, 10 mg/kg, Screening PK, 10 mg/kg PO, 4 h; UBP = 0.027; read-out: Free Plasma
measure-name: concentration at 4 h (nM)
Answers are plain numbers, in nM.

Reported concentration at 4 h for NC(=O)C(c1ccccc1)(c1ccc(F)cc1)c1ccc(F)cc1 : what is it? 65

* * *

- assay-protocol: Rat screening pharmacokinetics: plasma, brain, CSF exposure
- Type: in vivo
- measurement-conditions: male, Sprague-Dawley, rat, brain; Screening PK, 10 mg/kg PO, 4 h; read-out: Free Brain/Free Plasma
measure-name: Kp at 4 h
One number for each entry.

Quick check: Kp at 4 h of NC(=O)C(c1ccccc1)(c1ccc(F)cc1)c1ccc(F)cc1 ? 2.1

* * *

- assay-protocol: Plasma, brain and spinal cord exposure in CCI rats
- Format: in vivo, rat
- measurement-conditions: male, Sprague-Dawley, rat, spinal cord, 100 mg/kg PO, read-out: Free Spinal Cord/Free Plasma
measure-name: Kp at 4 h
Answers are plain numbers.

Could you share which Kp at 4 h value was measured for NC(=O)C(c1ccccc1)(c1ccc(F)cc1)c1ccc(F)cc1 ? 0.7

* * *

- assay-protocol: Rat screening pharmacokinetics: plasma, brain, CSF exposure
- Assay type: in vivo
- measurement-conditions: male, Sprague-Dawley, rat, brain, po, 10 mg/kg, Screening PK, 10 mg/kg PO, 4 h; UBBr = 0.008; read-out: Free Brain
measure-name: concentration at 4 h (nM)
One number for each entry, in nM.

Value lookup for concentration at 4 h; key = NC(=O)C(c1ccccc1)(c1ccc(F)cc1)c1ccc(F)cc1 136

* * *

- assay-protocol: Plasma, brain and spinal cord exposure in CCI rats
- Type: in vivo, rat
- measurement-conditions: male, Sprague-Dawley, rat, plasma, po, 30 mg/kg, 30 mg/kg PO, UBP = 0.027, read-out: Free Plasma
measure-name: concentration at 4 h (nM)
Answers are plain numbers, in nM.

Suppose we examine the molecule NC(=O)C(c1ccccc1)(c1ccc(F)cc1)c1ccc(F)cc1 ; what concentration at 4 h value has been reported? 56

Where these numbers come from: patent US11439607B2
